Source listed as paper PMC9516332.

- System: panel of 255 wild-type kinases (Homo sapiens, UniProt P07333)
- Sequence (P07333 20-972): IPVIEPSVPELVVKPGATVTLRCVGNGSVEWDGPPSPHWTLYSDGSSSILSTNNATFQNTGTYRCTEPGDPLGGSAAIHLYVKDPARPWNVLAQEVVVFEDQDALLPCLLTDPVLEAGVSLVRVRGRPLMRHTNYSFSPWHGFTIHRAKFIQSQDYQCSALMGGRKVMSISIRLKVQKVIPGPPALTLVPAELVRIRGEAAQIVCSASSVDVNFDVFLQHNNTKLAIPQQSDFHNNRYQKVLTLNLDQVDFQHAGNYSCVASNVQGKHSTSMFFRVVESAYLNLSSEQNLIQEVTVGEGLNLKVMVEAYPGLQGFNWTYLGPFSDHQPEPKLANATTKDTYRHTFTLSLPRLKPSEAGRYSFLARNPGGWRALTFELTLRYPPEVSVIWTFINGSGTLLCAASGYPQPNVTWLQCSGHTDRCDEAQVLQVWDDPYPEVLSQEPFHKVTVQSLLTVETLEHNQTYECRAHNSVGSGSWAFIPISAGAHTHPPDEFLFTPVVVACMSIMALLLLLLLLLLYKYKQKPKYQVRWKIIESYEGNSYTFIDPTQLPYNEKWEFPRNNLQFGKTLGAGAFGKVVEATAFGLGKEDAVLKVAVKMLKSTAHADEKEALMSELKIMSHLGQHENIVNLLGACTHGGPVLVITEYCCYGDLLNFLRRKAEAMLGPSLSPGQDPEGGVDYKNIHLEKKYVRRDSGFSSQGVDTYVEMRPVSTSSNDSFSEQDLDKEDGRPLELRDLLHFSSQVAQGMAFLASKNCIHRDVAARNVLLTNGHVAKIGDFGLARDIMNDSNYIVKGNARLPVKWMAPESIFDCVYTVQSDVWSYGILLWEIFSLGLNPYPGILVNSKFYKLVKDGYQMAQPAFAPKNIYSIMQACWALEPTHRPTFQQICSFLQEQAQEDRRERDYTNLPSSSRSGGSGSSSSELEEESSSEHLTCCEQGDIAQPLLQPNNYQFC
- Run Description: Kinase panel profiling at 1 µmol/L (MSA or IMAP), percentage inhibition
- Assay type: biochemical
- Measurement Conditions: kinase FMS; 1 µmol/L single concentration; read-out: %-inhibition at 1 µmol/L, FMS
// values below are reported inhibition at 1 µM
Parameter: inhibition at 1 µM (%)

>>> experimental_result("Cn1cnc2c(F)c(Nc3ccc(Br)cc3F)c(C(=O)NOCCO)cc21")
7
>>> experimental_result("CCN1C(=O)N(c2c(F)c(OC)cc(OC)c2F)Cc2cnc3[nH]c(CN4CCOCC4)cc3c21")
93
>>> experimental_result("Cc1nc(NC(=O)N2CCC[C@H]2C(N)=O)sc1-c1ccnc(C(C)(C)C(F)(F)F)c1")
14

---

Entries and their measured inhibition at 1 µM follow.
- System: panel of 255 wild-type kinases (Homo sapiens)
- Run Description: Kinase panel profiling at 1 µmol/L (MSA or IMAP), percentage inhibition
- Format: biochemical
- Measurement Conditions: kinase PIM3; 1 µmol/L single concentration; read-out: %-inhibition at 1 µmol/L, PIM3
Parameter: inhibition at 1 µM (%)

>>> experimental_result("CO[C@]1(C(=O)N[C@@H](C)c2ccc(-n3cc(F)cn3)nc2)CC[C@H](c2nc(C)cc(Nc3cc(C)[nH]n3)n2)CC1 [pralsetinib]")
-0.165
>>> experimental_result("Cc1cc(Nc2ncnc3ccc(NC4=NC(C)(C)CO4)cc23)ccc1Oc1ccn2ncnc2c1 [tucatinib]")
-1.3
>>> experimental_result("COC(=O)N[C@@H](C)CNc1nccc(-c2cn(C(C)C)nc2-c2cc(Cl)cc(NS(C)(=O)=O)c2F)n1 [encorafenib]")
10
>>> experimental_result("C[C@H](Nc1ncnc2nc[nH]c12)c1cc2cccc(Cl)c2c(=O)n1-c1ccccc1 [duvelisib]")
-7
>>> experimental_result("COc1ccc(CN2C3CC2CN(c2ccc(-c4cc(OCC(C)(C)O)cn5ncc(C#N)c45)cn2)C3)cn1 [selpercatinib]")
-2.65
>>> experimental_result("CCN1C(=O)N(c2c(F)c(OC)cc(OC)c2F)Cc2cnc3[nH]c(CN4CCOCC4)cc3c21 [pemigatinib]")
-8
>>> experimental_result("Cn1cnc2c(F)c(Nc3ccc(Br)cc3F)c(C(=O)NOCCO)cc21 [binimetinib]")
5
>>> experimental_result("CCN1CCN(c2ccc(Nc3cc(N(C)C(=O)Nc4c(Cl)c(OC)cc(OC)c4Cl)ncn3)cc2)CC1 [infigratinib]")
0.254
>>> experimental_result("CN1CCN(c2ccc(C(=O)Nc3n[nH]c4ccc(Cc5cc(F)cc(F)c5)cc34)c(NC3CCOCC3)c2)CC1 [entrectinib]")
-10
>>> experimental_result("Cn1cc(-c2cc3c(N4CCN(c5ncc([C@@](C)(N)c6ccc(F)cc6)cn5)CC4)ncnn3c2)cn1 [avapritinib]")
9
>>> experimental_result("C[C@H]1Oc2cc(cnc2N)-c2c(nn(C)c2C#N)CN(C)C(=O)c2ccc(F)cc21 [lorlatinib]")
-6

---

- Test system: 134 cancer cell lines
- Run Description: Cell viability assay (ATPlite, 72 hours), IC50 on cancer cell line panel
- Measurement Conditions: read-out: IC50 in cell proliferation assay, cell line VA-ES-BJ
Parameter: IC50 (µM)

>>> experimental_result("Cc1cc(Nc2ncnc3ccc(NC4=NC(C)(C)CO4)cc23)ccc1Oc1ccn2ncnc2c1")
25.9
>>> experimental_result("Cc1cc(Nc2ncc(Cl)c(Nc3ccccc3S(=O)(=O)C(C)C)n2)c(OC(C)C)cc1C1CCNCC1")
4.25
>>> experimental_result("O=C(c1ccc(F)c(F)c1Nc1ccc(I)cc1F)N1CC(O)([C@@H]2CCCCN2)C1")
4.58
>>> experimental_result("CC(=O)Nc1cccc(-n2c(=O)n(C3CC3)c(=O)c3c(Nc4ccc(I)cc4F)n(C)c(=O)c(C)c32)c1")
0.089

---

- System: panel of 255 wild-type kinases (Homo sapiens, UniProt Q9Y243)
- Sequence (Q9Y243 whole entry): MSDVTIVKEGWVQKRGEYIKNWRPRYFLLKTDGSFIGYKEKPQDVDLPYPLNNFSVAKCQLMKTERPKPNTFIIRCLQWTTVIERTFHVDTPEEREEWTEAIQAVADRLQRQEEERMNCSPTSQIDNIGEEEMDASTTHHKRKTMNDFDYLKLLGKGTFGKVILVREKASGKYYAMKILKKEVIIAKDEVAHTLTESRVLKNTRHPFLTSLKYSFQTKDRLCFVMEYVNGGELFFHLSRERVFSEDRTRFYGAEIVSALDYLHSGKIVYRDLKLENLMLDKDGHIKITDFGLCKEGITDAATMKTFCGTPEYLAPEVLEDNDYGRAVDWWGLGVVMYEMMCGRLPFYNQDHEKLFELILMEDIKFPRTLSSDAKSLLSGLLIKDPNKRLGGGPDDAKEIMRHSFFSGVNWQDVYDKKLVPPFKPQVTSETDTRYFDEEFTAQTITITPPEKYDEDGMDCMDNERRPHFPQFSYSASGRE
- Run Description: Kinase panel profiling at 1 µmol/L (MSA or IMAP), percentage inhibition
- Assay type: biochemical
- Measurement Conditions: AKT3 kinase assay; 1 µmol/L single concentration; read-out: %-inhibition AKT3
Parameter: inhibition at 1 µM (%)

>>> experimental_result("C=CC(=O)N1CCC([C@@H]2CCNc3c(C(N)=O)c(-c4ccc(Oc5ccccc5)cc4)nn32)CC1")
-3
>>> experimental_result("Cc1nc(NC(=O)N2CCC[C@H]2C(N)=O)sc1-c1ccnc(C(C)(C)C(F)(F)F)c1")
-0.151
>>> experimental_result("Cn1cnc2c(F)c(Nc3ccc(Br)cc3Cl)c(C(=O)NOCCO)cc21")
-6.42
>>> experimental_result("FC(F)(F)c1ccc(CNc2ccc(Cc3c[nH]c4ncc(Cl)cc34)cn2)cn1")
-6
>>> experimental_result("C[C@H]1Oc2cc(cnc2N)-c2c(nn(C)c2C#N)CN(C)C(=O)c2ccc(F)cc21")
-0.768
>>> experimental_result("CCc1nc(C(N)=O)c(Nc2ccc(N3CCC(N4CCN(C)CC4)CC3)c(OC)c2)nc1NC1CCOCC1")
-4.56
>>> experimental_result("COC(=O)N[C@@H](C)CNc1nccc(-c2cn(C(C)C)nc2-c2cc(Cl)cc(NS(C)(=O)=O)c2F)n1")
-0.872
>>> experimental_result("CCN1C(=O)N(c2c(F)c(OC)cc(OC)c2F)Cc2cnc3[nH]c(CN4CCOCC4)cc3c21")
-2.7
>>> experimental_result("COc1cc2ncnc(Nc3ccc(F)c(Cl)c3)c2cc1NC(=O)/C=C/CN1CCCCC1")
-5
>>> experimental_result("COc1ccc(CN2C3CC2CN(c2ccc(-c4cc(OCC(C)(C)O)cn5ncc(C#N)c45)cn2)C3)cn1")
-0.71
>>> experimental_result("O=C(Nc1cnn2ccc(N3CCC[C@@H]3c3cc(F)ccc3F)nc12)N1CC[C@H](O)C1")
-5.46
>>> experimental_result("CO[C@]1(C(=O)N[C@@H](C)c2ccc(-n3cc(F)cn3)nc2)CC[C@H](c2nc(C)cc(Nc3cc(C)[nH]n3)n2)CC1")
-2.71
>>> experimental_result("C[C@H](Nc1ncnc2nc[nH]c12)c1cc2cccc(Cl)c2c(=O)n1-c1ccccc1")
0.279
>>> experimental_result("Cn1cc(-c2cc3c(N4CCN(c5ncc([C@@](C)(N)c6ccc(F)cc6)cn5)CC4)ncnn3c2)cn1")
-5
>>> experimental_result("Cc1cc(Nc2ncnc3ccc(NC4=NC(C)(C)CO4)cc23)ccc1Oc1ccn2ncnc2c1")
-4.58
>>> experimental_result("CCN1CCN(c2ccc(Nc3cc(N(C)C(=O)Nc4c(Cl)c(OC)cc(OC)c4Cl)ncn3)cc2)CC1")
-7
>>> experimental_result("CCn1c(=O)c(-c2cc(NC(=O)Nc3ccccc3)c(F)cc2Br)cc2cnc(NC)cc21")
-6.42
>>> experimental_result("Cn1cnc2c(F)c(Nc3ccc(Br)cc3F)c(C(=O)NOCCO)cc21")
-5.69
>>> experimental_result("CN1CCN(c2ccc(C(=O)Nc3n[nH]c4ccc(Cc5cc(F)cc(F)c5)cc34)c(NC3CCOCC3)c2)CC1")
-1.28

---

// inhibition at 1 µM lookup, one value per entry
- System: panel of 255 wild-type kinases (Homo sapiens, UniProt P51451)
- Sequence (P51451 whole entry): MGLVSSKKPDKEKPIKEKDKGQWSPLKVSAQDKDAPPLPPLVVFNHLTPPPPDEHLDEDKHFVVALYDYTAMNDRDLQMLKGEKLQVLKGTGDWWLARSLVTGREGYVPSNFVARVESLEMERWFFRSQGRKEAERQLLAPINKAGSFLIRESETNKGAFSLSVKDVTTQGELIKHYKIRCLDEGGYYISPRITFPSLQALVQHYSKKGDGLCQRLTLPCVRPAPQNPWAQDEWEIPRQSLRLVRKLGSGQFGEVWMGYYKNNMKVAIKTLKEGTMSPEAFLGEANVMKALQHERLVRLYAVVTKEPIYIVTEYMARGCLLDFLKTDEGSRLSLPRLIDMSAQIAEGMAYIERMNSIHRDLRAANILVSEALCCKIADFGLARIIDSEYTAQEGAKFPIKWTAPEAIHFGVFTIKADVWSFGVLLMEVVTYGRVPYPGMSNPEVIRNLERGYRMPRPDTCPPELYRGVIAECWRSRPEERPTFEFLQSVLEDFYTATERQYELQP
- Run Description: Kinase panel profiling at 1 µmol/L (MSA or IMAP), percentage inhibition
- Assay type: biochemical
- Measurement Conditions: BLK kinase assay; 1 µmol/L single concentration; read-out: %-inhibition BLK
Parameter: inhibition at 1 µM (%)

>>> experimental_result("Cn1cnc2c(F)c(Nc3ccc(Br)cc3Cl)c(C(=O)NOCCO)cc21")
-6
>>> experimental_result("Cc1cc(Nc2ncnc3ccc(NC4=NC(C)(C)CO4)cc23)ccc1Oc1ccn2ncnc2c1")
2.27
>>> experimental_result("CCN1CCN(c2ccc(Nc3cc(N(C)C(=O)Nc4c(Cl)c(OC)cc(OC)c4Cl)ncn3)cc2)CC1")
21

---

- Tested on: 134 cancer cell lines
- Run Description: Cell viability assay (ATPlite, 72 hours), IC50 on cancer cell line panel
- Measurement Conditions: Homo sapiens, KMS-11, read-out: IC50 in cell proliferation assay
pIC50: −log10 of the molar value.
Parameter: pIC50

>>> experimental_result("CCn1c(=O)c(-c2cc(NC(=O)Nc3ccccc3)c(F)cc2Br)cc2cnc(NC)cc21 [ripretinib]")
5.34

---

- Tested on: 134 cancer cell lines
- Run Description: Cell viability assay (ATPlite, 72 hours), IC50 on cancer cell line panel
- Measurement Conditions: Homo sapiens, CCRF-CEM, read-out: IC50 in cell proliferation assay
Listed here: items and their measured IC50.
Parameter: IC50 (µM)

>>> experimental_result("CNC(=O)c1ccc(-c2cnc3ncc(Cc4ccc5ncccc5c4)n3n2)cc1F [capmatinib]")
28.3
>>> experimental_result("C=CC(=O)N1CCC[C@@H](n2nc(-c3ccc(Oc4ccccc4)cc3)c3c(N)ncnc32)C1 [ibrutinib]")
8.44
